The measured values listed here are drawn from patent US20260224494A1.

# procedureSummary: Solubility of milvexian forms in organic solvent systems
# Assay type: physicochemical
# runConditions: 100% MeOH, 40 °C, organic solvent or mixture, 100% MeOH; temperature 40; read-out: Solubility in mg/mL solution
observationType: solubility (mg/mL)
Enter your answer as a number in mg/mL; do not include the unit.

Query :: Item C[C@@H]1CCC[C@H](n2cnc(-c3cc(Cl)ccc3-n3cc(Cl)nn3)cc2=O)c2cc(ccn2)-c2c(cnn2C(F)F)NC1=O [Milvexian] : provide solubility
Result :: 6.6

---

# procedureSummary: Solubility in different aqueous media at 37° C.
# Format: physicochemical
# runConditions: sodium acetate buffer, 37 °C, pH 4.5, aqueous buffer, thermodynamic from solid, 0.05M sodium acetate buffer pH 4.5; 3 days; single replicates; read-out: Solubility, μg dissolved per mL at 37° C., replicates
observationType: solubility at 3 days (µg/mL)
Enter your answer as a number in µg/mL; do not include the unit.

Query :: Item C[C@@H]1CCC[C@H](n2cnc(-c3cc(Cl)ccc3-n3cc(Cl)nn3)cc2=O)c2cc(ccn2)-c2c(cnn2C(F)F)NC1=O [P1.Acetone solvate] : provide solubility at 3 days
Result :: 1.85

---

# procedureSummary: Solubility of milvexian forms in organic solvent systems
# Type: physicochemical
# runConditions: 100% MeOH, 20 °C, organic solvent or mixture, thermodynamic from solid, 100% MeOH; 20° C.; 24 hours; read-out: Solubility in mg/mL solution 24 hours
# Experimental: While heating of the feed solution is a viable solution for production, it is a more complex set-up and with risk of crashing out dissolved solids in case of cold spots and plant safety. […] Based on the data it was determined that 70/30 w/w % DCM/MeOH and 80/20 w/w % were promising solvent mixtures and more accurate solubility determination was carried out for 80/20 w/w % DCM/MeOH for both FORM A and P1.Acetone solvate at 20° C. with the results shown in Table 12 below. […]
observationType: solubility at 24 hours (mg/mL)
Enter your answer as a number in mg/mL; do not include the unit.

Query :: Item C[C@@H]1CCC[C@H](n2cnc(-c3cc(Cl)ccc3-n3cc(Cl)nn3)cc2=O)c2cc(ccn2)-c2c(cnn2C(F)F)NC1=O [P1.Acetone solvate] : provide solubility at 24 hours
Result :: 4.6

---

# procedureSummary: Solubility in different aqueous media at 37° C.
# Type: physicochemical
# runConditions: sodium phosphate buffer, 37 °C, pH 6.8, aqueous buffer, thermodynamic from solid, 0.05M sodium phosphate buffer pH 6.8; 1 day; average of 3 replicates; read-out: Solubility, μg dissolved per mL at 37° C., Average
observationType: solubility at 1 day (µg/mL)
Enter your answer as a number in µg/mL; do not include the unit.

Query :: Item C[C@@H]1CCC[C@H](n2cnc(-c3cc(Cl)ccc3-n3cc(Cl)nn3)cc2=O)c2cc(ccn2)-c2c(cnn2C(F)F)NC1=O [P1.Acetone solvate] : provide solubility at 1 day
Result :: 1.43

---

# procedureSummary: Solubility in different aqueous media at 37° C.
# Format: physicochemical
# runConditions: sodium acetate buffer, 37 °C, pH 4.5, aqueous buffer, thermodynamic from solid, 0.05M sodium acetate buffer pH 4.5; 1 day; average of 3 replicates; read-out: Solubility, μg dissolved per mL at 37° C., Average
observationType: solubility at 1 day (µg/mL)
Enter your answer as a number in µg/mL; do not include the unit.

Query :: Item C[C@@H]1CCC[C@H](n2cnc(-c3cc(Cl)ccc3-n3cc(Cl)nn3)cc2=O)c2cc(ccn2)-c2c(cnn2C(F)F)NC1=O [P1.Acetone solvate] : provide solubility at 1 day
Result :: 1.69
